Data credit: ChEMBL document CHEMBL2218924

The entries below come with measured residual activity values attached.
- TARGET_OF_ASSAY: AMP-activated protein kinase (AMPK) alpha-1/beta-1/gamma-1 (Homo sapiens) (UniProt P54619+Q9Y478+Q13131)
- Sequence (P54619 whole entry): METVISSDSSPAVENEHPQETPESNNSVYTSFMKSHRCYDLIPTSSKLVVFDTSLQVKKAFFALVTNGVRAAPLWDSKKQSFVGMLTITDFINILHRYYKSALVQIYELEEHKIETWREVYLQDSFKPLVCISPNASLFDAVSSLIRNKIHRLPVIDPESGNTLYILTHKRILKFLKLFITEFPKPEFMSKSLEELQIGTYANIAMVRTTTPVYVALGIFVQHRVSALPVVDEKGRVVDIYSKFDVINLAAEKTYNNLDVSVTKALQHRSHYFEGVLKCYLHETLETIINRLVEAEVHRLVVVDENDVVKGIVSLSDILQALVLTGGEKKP
- Sequence (Q13131 whole entry partner): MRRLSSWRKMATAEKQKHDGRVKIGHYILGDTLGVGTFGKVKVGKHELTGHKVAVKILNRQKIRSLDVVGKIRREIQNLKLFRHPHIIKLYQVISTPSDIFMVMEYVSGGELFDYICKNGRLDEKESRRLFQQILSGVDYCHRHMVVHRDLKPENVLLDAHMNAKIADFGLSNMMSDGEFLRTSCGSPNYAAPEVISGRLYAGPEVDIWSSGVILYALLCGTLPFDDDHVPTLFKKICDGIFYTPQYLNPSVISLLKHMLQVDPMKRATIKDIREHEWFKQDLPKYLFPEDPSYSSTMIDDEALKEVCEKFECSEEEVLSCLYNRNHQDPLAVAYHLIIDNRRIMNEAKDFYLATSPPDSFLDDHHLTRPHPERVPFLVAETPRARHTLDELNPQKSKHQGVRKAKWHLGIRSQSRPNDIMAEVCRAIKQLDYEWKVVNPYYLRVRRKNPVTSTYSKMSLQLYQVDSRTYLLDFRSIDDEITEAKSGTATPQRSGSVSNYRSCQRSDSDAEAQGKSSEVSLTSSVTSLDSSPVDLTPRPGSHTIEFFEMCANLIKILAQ
- Sequence (Q9Y478 2-270 partner limits assumed): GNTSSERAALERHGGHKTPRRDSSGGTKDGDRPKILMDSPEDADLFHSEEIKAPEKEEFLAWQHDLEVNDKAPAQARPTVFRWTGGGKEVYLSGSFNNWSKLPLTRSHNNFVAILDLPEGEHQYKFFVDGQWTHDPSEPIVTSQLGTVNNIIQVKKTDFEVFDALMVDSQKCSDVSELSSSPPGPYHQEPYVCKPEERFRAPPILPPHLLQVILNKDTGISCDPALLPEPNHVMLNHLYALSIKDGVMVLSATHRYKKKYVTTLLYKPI
- DETAILS: at 1 µM
Could you give me the number in %? Just the number is fine.

* CN(C)S(=O)(=O)c1ccc2c(c1)/C(=C/c1cc3c([nH]1)CCCC3)C(=O)N2 | 43
* O=C1C(Cl)=C(N2C(=O)CCC2=O)C(=O)c2ccccc21 | 95
* O=C1NC(=O)C(c2cn(CCCO)c3ncccc23)=C1c1cnccn1 | 92
* CCN(CC)CCNC(=O)c1c(C)[nH]c(/C=C2\C(=O)Nc3ccc(Cl)cc32)c1C | 7
* CC(C)c1nn(-c2c(Cl)cccc2Cl)c2nc(Cc3ccc(OCCO)cc3)[nH]c(=O)c12 | 93
* Nc1ncnc2c1cnn2-c1ccccc1 | 96
* Cn1sc(=O)n(Cc2ccccc2)c1=O | 83
* CCN1/C(=C/C(C)=O)Sc2ccc(OC)cc21 | 79
* COc1cc2nccc(Oc3ccc(NC(=S)NC(=O)c4ccccc4C)cc3)c2cc1OC | 88
* O=C1NC(=O)C(c2c[nH]c3ccccc23)=C1c1c[nH]c2ccccc12 | 72

Moving on to another compound below.
Can you look up the measured residual activity of NC(=O)c1cccc(-c2cc(Nc3ccc(OC(F)(F)F)cc3)ncn2)c1 for me?
99
